Test system: Hs-578T
experimental-details: NCI tumour cell line growth inhibition, 48 h
Active and inactive are the calls of the source. Rule as the data show it: active = GI50 up to about 1.1 µM and inactive = higher.
Classes used: t = active, f = inactive

| compound | subject-of-test | class-assignment |
| --- | --- | --- |
| C=CO/N=[N+](\[O-])N(CC)CC | Hs-578T | f |
| CC(C)(CO)CNc1nc(N)nc(Cl)c1C=O | Hs-578T | f |
| CC(C)(C)OC(=O)Nc1nnc(S(N)(=O)=O)s1 | Hs-578T | f |
| CSC1=C(C(=O)Nc2ccc(C)cc2)C(N)=NC1=O | Hs-578T | f |
| O=C1c2ccccc2-c2oc(=O)c3ccccc3c21 | Hs-578T | f |
| CCN(CC)C(=S)SS(=O)(=O)c1ccc(C)cc1 | Hs-578T | f |
| CN1C(=O)CC2CCC(=O)N2c2cccnc21 (configuration not stated) | Hs-578T | f |
| COC(=O)C12OC3CO[Si](C(C)C)(C(C)C)O[Si](C(C)C)(C(C)C)OC3C1Oc1nc(=O)ccn12 (configuration not stated) | Hs-578T | t |
| CC(=O)c1c(SCCN2CCOCC2)n(-c2ccccc2)c(=S)n(-c2ccccc2)c1=O | Hs-578T | f |
| Nc1ccccc1CC(O)C(=O)O (configuration not stated) | Hs-578T | f |
| CCOC(=O)c1cc(C2=CCNC2=O)c(-c2cc(C)no2)[nH]1 | Hs-578T | f |
| OCCCNCc1ccccn1 | Hs-578T | f |
| Cc1cc(OCc2nnc3n2N=C(c2cc(F)c(Cl)cc2Cl)/C(=C/c2ccc(Cl)cc2)S3)ccc1Cl | Hs-578T | f |
| Cc1cc(C)n(CN(Cn2nc(C)cc2C)c2ccc(N(Cn3nc(C)cc3C)Cn3nc(C)cc3C)cc2)n1 | Hs-578T | f |
| NCCCc1nonc1C(=O)O | Hs-578T | f |
| C=C(C(=O)O)[C@@H]1C[C@@H]2O[C@H]1[C@@H](O)[C@@H](C)CCCC(C)=CCC[C@@]2(C)O | Hs-578T | f |
| CC1(C)N=C(N)N=C(N)N1c1cccc(OCc2cccc(N)c2)c1 | Hs-578T | f |
| CC1(C)C2CCC1(C)C(N/C(=C(/C(Cl)=C(Cl)Cl)[N+](=O)[O-])n1nnc3ccccc31)C2 (configuration not stated) | Hs-578T | f |
| C[C@]12CC[C@H](O)C[C@@H]1CC[C@@H]1[C@@H]2CC[C@]2(C)[C@@H](C3=CC(=O)OC3)CC[C@]12O | Hs-578T | f |
| N=C(N)SCc1cc(Cl)cc(Cl)c1O | Hs-578T | f |
| COc1ccc(/C=N/N=C(\N)NO)c(O)c1 | Hs-578T | f |
| N#Cc1c(N)n(-c2nc3ccccc3s2)c(=O)c2cc([N+](=O)[O-])ccc12 | Hs-578T | f |

Sourced from ChEMBL document CHEMBL1201862
